Parameter: phage ELISA signal ratio. Scope: all listed entries.
# testTarget: DCTN1 26-97 CAP_GLY (domain begin residue: 26, domain end residue: 97), Q14203
# Sequence (Q14203 whole entry): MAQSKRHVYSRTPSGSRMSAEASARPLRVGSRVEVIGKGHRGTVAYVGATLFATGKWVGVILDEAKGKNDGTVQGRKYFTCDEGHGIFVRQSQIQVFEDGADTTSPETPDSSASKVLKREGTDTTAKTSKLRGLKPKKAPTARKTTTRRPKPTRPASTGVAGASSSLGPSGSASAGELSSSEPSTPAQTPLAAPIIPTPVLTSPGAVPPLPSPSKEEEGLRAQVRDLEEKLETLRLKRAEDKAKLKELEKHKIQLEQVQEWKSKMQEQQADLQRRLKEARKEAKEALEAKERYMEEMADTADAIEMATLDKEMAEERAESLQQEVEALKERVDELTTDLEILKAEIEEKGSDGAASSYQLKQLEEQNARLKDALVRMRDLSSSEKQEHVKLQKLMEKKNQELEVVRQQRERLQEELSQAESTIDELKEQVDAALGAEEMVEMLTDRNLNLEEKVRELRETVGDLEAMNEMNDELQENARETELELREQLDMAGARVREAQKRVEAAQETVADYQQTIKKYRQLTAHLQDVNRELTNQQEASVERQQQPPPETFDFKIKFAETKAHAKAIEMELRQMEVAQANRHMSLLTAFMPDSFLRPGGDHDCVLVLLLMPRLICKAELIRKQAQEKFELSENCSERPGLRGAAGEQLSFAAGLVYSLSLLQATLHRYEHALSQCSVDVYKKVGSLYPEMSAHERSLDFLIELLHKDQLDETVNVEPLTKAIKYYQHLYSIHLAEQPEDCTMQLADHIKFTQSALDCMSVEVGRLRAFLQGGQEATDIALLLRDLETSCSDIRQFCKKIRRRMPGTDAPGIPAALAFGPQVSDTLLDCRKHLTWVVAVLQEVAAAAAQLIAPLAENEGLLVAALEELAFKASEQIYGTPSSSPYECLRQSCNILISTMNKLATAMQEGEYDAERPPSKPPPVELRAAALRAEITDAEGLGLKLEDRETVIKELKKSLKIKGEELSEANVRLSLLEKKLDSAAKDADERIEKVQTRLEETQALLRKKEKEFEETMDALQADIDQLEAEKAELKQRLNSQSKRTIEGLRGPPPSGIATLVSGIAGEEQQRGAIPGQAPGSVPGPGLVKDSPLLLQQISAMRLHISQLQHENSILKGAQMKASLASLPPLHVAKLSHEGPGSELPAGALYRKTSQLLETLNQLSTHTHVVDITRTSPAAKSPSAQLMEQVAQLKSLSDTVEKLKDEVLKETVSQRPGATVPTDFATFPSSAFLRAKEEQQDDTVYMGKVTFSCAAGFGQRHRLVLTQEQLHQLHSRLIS
# protocolNotes: phage ELISA signal ratio (GST-PRM binding over GST background); higher = stronger binding of peptide-phage to the PRM
Just the number, please, no unit attached.

HGMDYLNREFPWDWWT: 16.6
MEWTWEQWDLGADYVK: 21.2

Record FKEWTWSPVEWGQAES , field phage ELISA signal ratio: 6.09

Input QDEWVPWQLWSQWESI . Output phage ELISA signal ratio: 26.4
